Please provide measured absorption maximum for the entries that follow.
ASSAY EXPLANATION: solvent given as SMILES
EXPERIMENTAL CONTEXT: in C1CCOC1
Report as a plain number; the unit nm is understood.

GET /value?item= `c1ccc(-n2c(-c3c(-n4c5ccccc5c5ccccc54)cccc3-n3c4ccccc4c4ccccc43)nc3ccccc32)cc1` &field=absorption maximum returns 342

GET /value?item= COC(=O)C(Cc1ccc2oc(-c3ccc(N(C)C)cc3)nc2c1)NC(=O)OC(C)(C)C (configuration not stated) &field=absorption maximum returns 341.8

GET /value?item= `CCN(CC)c1ccc2cc(-c3csc(N)c3C#N)c(=O)oc2c1` &field=absorption maximum returns 403

GET /value?item= `CC(=O)c1ccc2ccc3cccc4ccc1c2c34` &field=absorption maximum returns 384

GET /value?item= `CC(C)(C)c1ccc2c(c1)c1ccc3cccc4c5cccc6oc(=O)c2c(c65)c1c34` &field=absorption maximum returns 412

GET /value?item= `CCc1s[c+](N2CCCCC2)sc1-c1cc(C)cc(I)c1[O-]` &field=absorption maximum returns 409

GET /value?item= `CCn1c2ccccc2c2cc(-c3cc(-c4ccc5c(c4)c4ccccc4n5CC)nc(-c4ccccc4)n3)ccc21` &field=absorption maximum returns 364

GET /value?item= `O=C(c1ccc(N(c2ccccc2)c2ccccc2)cc1)[C@H]1[C@H](c2cccs2)C[C@](O)(c2ccccn2)C[C@]1(O)c1ccccn1` &field=absorption maximum returns 370

GET /value?item= `c1ccc(/C(=C(\c2ccccc2)c2cc(-c3ccc(-c4ccccc4)cc3)ccc2-c2ccc(-c3ccccc3)cc2)c2cc(-c3ccc(-c4ccccc4)cc3)ccc2-c2ccc(-c3ccccc3)cc2)cc1` &field=absorption maximum returns 302

GET /value?item= `CN(C)CCN(Cc1c2ccccc2cc2ccccc12)c1ccc([N+](=O)[O-])cc1[N+](=O)[O-]` &field=absorption maximum returns 394

GET /value?item= `CC1(C)c2cc(C#N)ccc2-c2ccc(N3c4ccccc4Oc4ccccc43)cc21` &field=absorption maximum returns 380

GET /value?item= `N#Cc1nnn(-c2ccnc3cc(Cl)ccc23)c1N` &field=absorption maximum returns 364.05

GET /value?item= `CC1=CC(c2ccc(N(C)C)cc2)=[N+]2C1=Nc1c(C)cc(-c3ccc(N(C)C)cc3)n1[B-]2(F)F` &field=absorption maximum returns 744

GET /value?item= `O=C1c2ccccc2C(=O)N1c1ccc(Cn2cncn2)cc1` &field=absorption maximum returns 293

GET /value?item= `CCCCCCCc1cc2c(o1)=CC1=C3c4cc5oc(CCCCCCC)cc5n4[B-](F)(F)[n+]4nnn(c43)[B-](F)(F)[N+]=21` &field=absorption maximum returns 676

GET /value?item= `CCC1(CC)c2cc(B(c3c(C)cc(C)cc3C)c3c(C)cc(C)cc3C)ccc2-c2ccc(N(c3ccccc3)c3ccc4c(c3)C(CC)(CC)c3cc(B(c5c(C)cc(C)cc5C)c5c(C)cc(C)cc5C)ccc3-4)cc21` &field=absorption maximum returns 422

GET /value?item= `COc1cc2c(c(OC)c1OC)c1ccc3cccc4c5cccc6oc(=O)c2c(c65)c1c34` &field=absorption maximum returns 417

All figures here come from the Deep4Chem optical property database.
